targetDesc: MAPK14 (human)
testSummary: Inhibition of LPS Stimulated TNF Production by U937 Cells
testParameters: concentration not given here
Assign inhibition to each entry below.
Give bare numbers, in %.

>>> reportedvalue("C[C@H](NC(=O)c1ccc(F)c(F)c1)c1[nH]nc(-c2ccc(F)cc2)c1-c1ccncc1")
52

Return reported inhibition values for all items listed beneath this line.
1. O=S(=O)(NCCc1[nH]nc(-c2ccc(F)cc2)c1-c1ccncc1)C(F)(F)F
2. O=S(=O)(c1cccc(Cl)c1)N1CCC(c2[nH]nc(-c3ccc(F)cc3)c2-c2ccncc2)CC1
3. CC(=O)Nc1ccc(S(=O)(=O)N[C@H](C)c2[nH]nc(-c3ccc(F)cc3)c2-c2ccncc2)cc1

output:
1: 66; 2: 31; 3: 64

* * *

targetDesc: MAPK14 (human) (UniProt Q16539)
Sequence (Q16539 whole entry, looked up): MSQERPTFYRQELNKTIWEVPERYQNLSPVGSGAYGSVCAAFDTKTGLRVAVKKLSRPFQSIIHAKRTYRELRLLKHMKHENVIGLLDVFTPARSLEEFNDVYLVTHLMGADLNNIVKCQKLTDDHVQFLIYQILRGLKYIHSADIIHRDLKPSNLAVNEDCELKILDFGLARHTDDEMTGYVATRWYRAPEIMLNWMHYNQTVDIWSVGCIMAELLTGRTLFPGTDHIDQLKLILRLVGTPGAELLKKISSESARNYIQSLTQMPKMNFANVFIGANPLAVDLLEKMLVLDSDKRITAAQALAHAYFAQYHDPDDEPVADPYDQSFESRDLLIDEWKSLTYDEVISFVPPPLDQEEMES
testSummary: Inhibition of LPS Stimulated TNF Production by U937 Cells
testParameters: concentration not given here
The threshold is inclusive: inhibition of exactly 40% counts as 1.0; values below receive 0.0.

Completed entries (count: 3):
>>> classification("COc1ccc(NC(=O)NCc2[nH]nc(-c3ccc(F)cc3)c2-c2ccncc2)cc1")
0.0
>>> classification("Cc1ccc(C)c(S(=O)(=O)N[C@@H](C)c2[nH]nc(-c3ccc(F)cc3)c2-c2ccncc2)c1")
1.0
>>> classification("Cc1cccc(C)c1NC(=O)N[C@@H](C)c1[nH]nc(-c2ccc(F)cc2)c1-c1ccncc1")
1.0

input: API: above_or_equal(metric=inhibition, cutoff=40%) for item O=C(NCc1[nH]nc(-c2ccc(F)cc2)c1-c1ccncc1)c1ccccn1
output: 0.0

input: Quick check: does O=S(=O)(c1ccccc1)N1CCC(c2[nH]nc(-c3ccc(F)cc3)c2-c2ccncc2)CC1 have inhibition greater than or equal to 40%?
output: 0.0

input: Hi team, for COc1ccc(S(=O)(=O)NCCc2[nH]nc(-c3ccc(F)cc3)c2-c2ccncc2)cc1 , is the recorded inhibition at or above 40%?
output: 0.0

input: State whether the measured inhibition reaches 40%, counting equality as reaching it, for CCOC(=O)NCc1[nH]nc(-c2ccc(F)cc2)c1-c1ccncc1
output: 1.0

input: Reported inhibition reaches at least 40% for CC(C)OC(=O)N[C@@H](C)c1[nH]nc(-c2ccc(F)cc2)c1-c1ccncc1 ?
output: 1.0

input: Exam item: decide whether the reported inhibition for O=S(=O)(NCc1[nH]nc(-c2ccc(F)cc2)c1-c1ccncc1)c1cc(S(=O)(=O)c2ccccc2)cs1 is at least 40%.
output: 1.0

* * *

Provide the reported inhibition of each item.
targetDesc: MAPK14 (human)
testSummary: Inhibition of MAPK14 Kinase Activity by PHAS-I Assay
testParameters: concentration not given here
Answers are plain numbers, in %.

Answered cases to consult:
>>> reportedvalue("CC(=O)O[C@@H](C)C(=O)NCCc1[nH]nc(-c2ccc(F)cc2)c1-c1ccncc1")
57
>>> reportedvalue("O=S(=O)(Cc1ccccc1)NCCCc1[nH]nc(-c2ccc(F)cc2)c1-c1ccncc1")
87
>>> reportedvalue("O=C(NCCCc1[nH]nc(-c2ccc(F)cc2)c1-c1ccncc1)NCCc1ccccc1")
82

Give measured inhibition for every item shown.
1. COc1ccc(NC(=O)NCCCc2[nH]nc(-c3ccc(F)cc3)c2-c2ccncc2)c(OC)c1
2. COc1ccc(NC(=O)NCCCc2[nH]nc(-c3ccc(F)cc3)c2-c2ccncc2)cc1
3. O=C(NCCc1[nH]nc(-c2ccc(F)cc2)c1-c1ccncc1)c1ccno1
4. O=C(NCCc1[nH]nc(-c2ccc(F)cc2)c1-c1ccncc1)c1ccccc1
5. O=C(NCCCc1[nH]nc(-c2ccc(F)cc2)c1-c1ccncc1)Nc1ccc(F)cc1
6. CCOC(=O)NC(=O)NCc1[nH]nc(-c2ccc(F)cc2)c1-c1ccncc1
7. CCS(=O)(=O)NCCc1[nH]nc(-c2ccc(F)cc2)c1-c1ccncc1
8. CCCCNS(=O)(=O)c1cccc(NC(=O)Cn2nc(-c3ccc(F)cc3)c(-c3ccncc3)c2C)c1

output:
1: 83; 2: 82; 3: 77; 4: 74; 5: 88; 6: 51; 7: 93; 8: 77

Answer for every listed entry: what is its inhibition? The entries follow.
1. Cc1c(-c2ccncc2)c(-c2ccc(F)cc2)nn1CC(=O)N(C)CC(N)=O
2. Cc1c(-c2ccncc2)c(-c2ccc(F)cc2)nn1CC(=O)NC1CCc2ccccc21 (stereo unspecified)
3. CCCCCSc1cccc(NC(=O)Cn2nc(-c3ccc(F)cc3)c(-c3ccncc3)c2C)c1

output:
1. 60
2. 73
3. 94

Please give inhibition for each item listed below.
1. O=C(NCCCc1[nH]nc(-c2ccc(F)cc2)c1-c1ccncc1)N1CCOCC1
2. CC(=O)Nc1ccc(S(=O)(=O)NCc2[nH]nc(-c3ccc(F)cc3)c2-c2ccncc2)cc1

output:
1: 82; 2: 66

* * *

targetDesc: MAPK14 (human)
testSummary: Inhibition of MAPK14 Kinase Activity by PHAS-I Assay
pIC50: −log10 of the molar value.
# label = t if pIC50 >= 6 else f

These solved cases illustrate the format of a correct answer.
>>> classification("CC1(C)[C@H]2CC[C@@]1(CCS(=O)(=O)NCc1[nH]nc(-c3ccc(F)cc3)c1-c1ccncc1)C(=O)C2")
"t"
>>> classification("CC1(C)[C@H]2CC[C@@]1(CS(=O)(=O)NCCCc1[nH]nc(-c3ccc(F)cc3)c1-c1ccncc1)C(=O)C2")
"t"
>>> classification("CC1(C)[C@@H]2CC[C@]1(CS(=O)(=O)NCCCc1[nH]nc(-c3ccc(F)cc3)c1-c1ccncc1)C(=O)C2")
"t"
>>> classification("O=S(=O)(NCc1[nH]nc(-c2ccc(F)cc2)c1-c1ccncc1)c1ccc2ccccc2c1")
"t"
>>> classification("COc1ccc(-c2[nH]nc(C)c2-c2ccncc2)cc1Cl")
"t"
>>> classification("CN(C(=O)NCc1[nH]nc(-c2ccc(F)cc2)c1-c1ccncc1)c1ccccc1")
"t"
>>> classification("CC1(C)[C@@H]2CC[C@]1(CCS(=O)(=O)NCc1[nH]nc(-c3ccc(F)cc3)c1-c1ccncc1)C(=O)C2")
"t"
>>> classification("O=S(=O)(NCCc1[nH]nc(-c2ccc(F)cc2)c1-c1ccncc1)c1ccc(Cl)c(Cl)c1")
"t"
>>> classification("C[C@@H](NS(=O)(=O)c1ccccc1C(=O)O)c1[nH]nc(-c2ccc(F)cc2)c1-c1ccncc1")
"t"
>>> classification("CC1(C)[C@@H]2CC[C@]1(CS(=O)(=O)NCCc1[nH]nc(-c3ccc(F)cc3)c1-c1ccncc1)C(=O)C2")
"t"

input: Check this compound for pIC50 at or above 6: O=C(N[C@H](Cc1ccccc1)c1[nH]nc(-c2ccc(F)cc2)c1-c1ccncc1)c1cnc2ccccc2n1
output: f

input: Hello, I need to know if CNC(=O)CC[C@H](NC(=O)c1ccc(I)cc1)c1[nH]nc(-c2ccc(F)cc2)c1-c1ccncc1 has measured pIC50 not below 6. Thanks!
output: f

input: Is it the case that CC(=O)N[C@@H](C)c1[nH]nc(-c2ccc(F)cc2)c1-c1ccncc1 has pIC50 reaching or exceeding 6?
output: t

input: Dear colleague, could you confirm whether O=C(NCc1[nH]nc(-c2ccc(F)cc2)c1-c1ccncc1)N1CCCC1 has pIC50 at or above 6?
output: t

input: I'd appreciate it if you could say whether O=C(Nc1ccccc1F)N[C@H](Cc1ccccc1)c1[nH]nc(-c2ccc(F)cc2)c1-c1ccncc1 has pIC50 at least equal to 6.
output: f

input: Is it the case that COc1ccc(NC(=O)N2CCC(c3[nH]nc(-c4ccc(F)cc4)c3-c3ccncc3)CC2)c(OC)c1 has pIC50 reaching or exceeding 6?
output: t

input: Hello, I need to know if O=S(=O)(NCc1[nH]nc(-c2ccc(F)cc2)c1-c1ccncc1)C(F)(F)F has measured pIC50 not below 6. Thanks!
output: f

input: Is the recorded value of pIC50 equal to or greater than 6 for this compound? CC1(C)[C@H]2CC[C@@]1(CS(=O)(=O)NCCc1[nH]nc(-c3ccc(F)cc3)c1-c1ccncc1)C(=O)C2
output: t

input: # check: pIC50 of CN1CCN(CCCNC(=O)NCCCc2[nH]nc(-c3ccc(F)cc3)c2-c2ccncc2)CC1 is greater than or equal to 6
output: t

input: Does O=C(N[C@H](Cc1ccccc1)c1[nH]nc(-c2ccc(F)cc2)c1-c1ccncc1)c1ccccc1I have a reported pIC50 of at least 6?
output: t

input: Does C[C@H](NS(=O)(=O)c1ccccc1C#N)c1[nH]nc(-c2ccc(F)cc2)c1-c1ccncc1 have a reported pIC50 of at least 6?
output: t

input: Evaluate CC(=O)Nc1ccc(S(=O)(=O)N[C@@H](C)c2[nH]nc(-c3ccc(F)cc3)c2-c2ccncc2)cc1 : pIC50 at minimum 6?
output: t

input: pIC50 >= 6 for CNCCCNC(=O)CSc1[nH]nc(-c2ccc(Cl)cc2)c1-c1ccncc1 ?
output: f

input: Would you say O=C(NCc1[nH]nc(-c2ccc(F)cc2)c1-c1ccncc1)N1CCOCC1 shows pIC50 at minimum 6?
output: t

input: Evaluate COc1ccccc1C(=O)N1CCC(c2[nH]nc(-c3ccc(F)cc3)c2-c2ccncc2)CC1 : pIC50 at minimum 6?
output: t

input: Is pIC50 at least 6? Consider CN(C)C(=O)NCc1[nH]nc(-c2ccc(F)cc2)c1-c1ccncc1
output: t

input: Exam item: decide whether the reported pIC50 for N#CCNc1[nH]nc(-c2ccc(F)cc2)c1-c1ccncc1 is at least 6.
output: t

input: Test whether the compound CCCc1n[nH]c(-c2cccc([N+](=O)[O-])c2)c1-c1ccncc1 records pIC50 of 6 or higher.
output: f

input: Test whether the compound C[C@H](NS(=O)(=O)C[C@@]12CC[C@H](CC1=O)C2(C)C)c1[nH]nc(-c2ccc(F)cc2)c1-c1ccncc1 records pIC50 of 6 or higher.
output: t
